Data credit: patent US10077247B2

molecular target: rat EP4 receptor (Rattus norvegicus (Rat)); assay: EP4 antagonistic activity measurement using prostanoid receptor subtype expressing cells (cAMP); conditions: CHO cells expressing rat EP4 receptor; inhibition of cAMP production by PGE2 10 nM
Recorded IC50 determines the label; the label ranges are low band: < 4 nM; middle band: ≥ 4 nM and < 7 nM; high band: ≥ 7 nM

Please review the following examples before continuing.
Inquiry: Category of CNC(=O)c1ccc2c(c1)[C@]1(CC2)C[C@H]1C(=O)Nc1cc(C#N)ccc1CCCC(=O)O , please.
Reply text: low band

Inquiry: Which category does the recorded IC50 put CNC(=O)c1ccc2c(c1)[C@@]1(C[C@H]1C(=O)Nc1cc(C#N)ccc1CCCC(=O)O)CC2(C)C in?
Reply text: middle band

Inquiry: Quick check: band for CNc1ccc(-c2ccc3c(c2)[C@]2(CCO3)C[C@H]2C(=O)Nc2cc(C#N)ccc2CCCC(=O)O)cn1
Reply text: high band

Inquiry: Classify this compound: COCCNC(=O)c1ccc2c(c1)[C@]1(CO2)C[C@H]1C(=O)Nc1cc(C#N)ccc1CCCC(=O)O
Reply text: middle band

Inquiry: Place this compound in its band: N#Cc1ccc(CCCC(=O)O)c(NC(=O)[C@@H]2C[C@]23CCOc2ccc(C(=O)NCC(F)F)cc23)c1
Reply text: low band

Further cases:
Inquiry: Bin this entry: COc1ccc(-c2ccc3c(c2)[C@]2(CCO3)C[C@H]2C(=O)Nc2cc(C#N)ccc2CCCC(=O)O)cn1
Reply text: low band

Inquiry: Note: place this compound into its band. Item: Cn1ccc(NC(=O)c2ccc3c(c2)[C@]2(CCO3)C[C@H]2C(=O)Nc2cc(C#N)ccc2CCCC(=O)O)n1
Reply text: middle band

###

IC50 values, listed per item
molecular target: rat EP4 receptor (Rattus norvegicus (Rat), UniProt P43114); test: EP4 antagonistic activity measurement using prostanoid receptor subtype expressing cells (cAMP); settings: CHO cells expressing rat EP4 receptor; inhibition of cAMP production by PGE2 10 nM
Sequence (P43114 whole entry): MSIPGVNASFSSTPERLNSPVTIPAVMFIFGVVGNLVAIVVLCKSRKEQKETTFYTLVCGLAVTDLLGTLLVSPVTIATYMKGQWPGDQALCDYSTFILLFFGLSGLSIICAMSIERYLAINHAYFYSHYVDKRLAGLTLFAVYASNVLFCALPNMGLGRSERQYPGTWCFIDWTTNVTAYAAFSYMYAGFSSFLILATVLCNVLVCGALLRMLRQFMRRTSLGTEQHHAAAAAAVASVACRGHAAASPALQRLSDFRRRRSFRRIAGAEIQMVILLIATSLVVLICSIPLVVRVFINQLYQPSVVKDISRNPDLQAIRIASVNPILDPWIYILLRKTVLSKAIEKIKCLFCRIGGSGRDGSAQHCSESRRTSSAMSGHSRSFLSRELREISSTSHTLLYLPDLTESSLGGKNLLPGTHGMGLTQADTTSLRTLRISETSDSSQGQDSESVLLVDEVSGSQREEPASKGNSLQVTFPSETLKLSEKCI

Example entries begin here.
Inquiry: Need IC50 of Cn1nccc1NC(=O)c1ccc2c(c1)[C@]1(CCO2)C[C@H]1C(=O)Nc1cc(C#N)ccc1CCCC(=O)O [Example 2-43] , thanks.
Reply text: 3.6 nM

Inquiry: // IC50 lookup, key: COCCNC(=O)c1ccc2c(c1)[C@]1(CC2)C[C@H]1C(=O)Nc1cc(C#N)ccc1CCCC(=O)O [Example 18-2]
Reply text: 3 nM

Inquiry: For the compound shown here, N#Cc1ccc(CCCC(=O)O)c(NC(=O)[C@@H]2C[C@]23CCOc2ccc(-c4cnc5[nH]ccc5c4)cc23)c1 [Example 7-19] , give the reported IC50.
Reply text: 4.5 nM

Attention now shifts to the item below.
Inquiry: Fill blank: measured IC50 of the compound CCOCCNC(=O)c1ccc2c(c1)[C@]1(CCO2)C[C@H]1C(=O)Nc1cc(C#N)ccc1CCCC(=O)O [Example 2-45] is ____.
Reply text: 8.3 nM

###

molecular target: UniProt:P43114; experiment: EP4 antagonistic activity measurement using prostanoid receptor subtype expressing cells (cAMP); details: CHO cells expressing rat EP4 receptor; inhibition of cAMP production by PGE2 10 nM
Each record's class is read off its IC50 using these ranges: band 1: < 4 nM; band 2: ≥ 4 nM and < 6 nM; band 3: ≥ 6 nM

Some solved cases for reference:
Inquiry: Which IC50 category applies to CCNC(=O)c1ccc2c(c1)[C@]1(CCO2)C[C@H]1C(=O)Nc1cc(C#N)ccc1CCCC(=O)O [Example 2-46] here?
Reply text: band 1

Inquiry: Quick check: band for N#Cc1ccc(CCCC(=O)O)c(NC(=O)[C@@H]2C[C@]23CCOc2ccc(C(=O)Nc4ccno4)cc23)c1 [Example 2-41]
Reply text: band 1

Inquiry: Where would N#Cc1ccc(CCCC(=O)O)c(NC(=O)[C@@H]2C[C@]23CCOc2ccc(-c4cccnc4)cc23)c1 [Example 7-3] land among the classes by reported IC50?
Reply text: band 1

***
Inquiry: Which bin should I file N#Cc1ccc(CCCC(=O)O)c(NC(=O)[C@@H]2C[C@]23CCOc2ccc(C(=O)Nc4ccccn4)cc23)c1 [Example 2-23] under?
Reply text: band 2

Inquiry: Hi, small favor: classify CNC(=O)c1ccc2c(c1)OCC[C@]21C[C@H]1C(=O)Nc1cc(C#N)ccc1CCCC(=O)O [Example 28-1] by its IC50 when you get a moment.
Reply text: band 3

Inquiry: Just checking, what class would you give Cn1cc(NC(=O)c2ccc3c(c2)[C@]2(CC3)C[C@H]2C(=O)Nc2cc(C#N)ccc2CCCC(=O)O)cn1 [Example 18-3] here?
Reply text: band 1

Inquiry: Note: place this molecule into its band. Item: COC[C@H](C)NC(=O)c1ccc2c(c1)[C@]1(CCO2)C[C@H]1C(=O)Nc1cc(C#N)ccc1CCCC(=O)O [Example 2-4]
Reply text: band 1

Inquiry: Classify this molecule: N#Cc1ccc(CCCC(=O)O)c(NC(=O)[C@@H]2C[C@]23CCOc2ccc(-c4ncco4)cc23)c1 [Example 10-3]
Reply text: band 2

Inquiry: Class (by measured IC50) for N#Cc1ccc(CCCC(=O)O)c(NC(=O)[C@@H]2C[C@]23COc2ccc(-c4cccnc4)cc23)c1 [Example 36]
Reply text: band 2

Inquiry: Into which category would you place CC(C)NC(=O)c1cc2c(cc1F)OCC[C@]21C[C@H]1C(=O)Nc1cc(C#N)ccc1CCCC(=O)O [Example 20-5] ?
Reply text: band 3

Inquiry: # bin lookup: classify Cn1cc(-c2ccc3c(c2)[C@]2(CCO3)C[C@H]2C(=O)Nc2cc(C#N)ccc2CCCC(=O)O)nn1 [Example 10-4] by its IC50
Reply text: band 1

Inquiry: Class label required: CNC(=O)c1cc2c(cc1F)OCC[C@]21C[C@H]1C(=O)Nc1cc(C#N)ccc1CCCC(=O)O [Example 20-1]
Reply text: band 3

Inquiry: Band for the recorded IC50 of CC1(C)C[C@]2(C[C@H]2C(=O)Nc2cc(C#N)ccc2CCCC(=O)O)c2cc(-c3cccnc3)ccc21 [Example 39] ?
Reply text: band 2

###

Quick list: IC50 per entry.
molecular target: rat EP4 receptor (Rattus norvegicus (Rat), UniProt P43114); assay: EP4 antagonistic activity measurement using prostanoid receptor subtype expressing cells (cAMP); assay type: cell-based; conditions: CHO cells expressing rat EP4 receptor; inhibition of cAMP production by PGE2 10 nM
All answers are understood in nM, so give the number only.

Illustrative cases are given below, each with its answer.
Inquiry: Give the measured IC50 of COCCNC(=O)c1cc2c(cc1OC)OCC[C@]21C[C@H]1C(=O)Nc1cc(C#N)ccc1CCCC(=O)O [Example 33-2] .
Reply text: 8.4

Inquiry: Which IC50 is listed for N#Cc1ccc(CCCC(=O)O)c(NC(=O)[C@@H]2C[C@]23CCOc2ccc(-c4ccc(F)cn4)cc23)c1 [Example 10-9] ?
Reply text: 6.7

Inquiry: Bench note: what IC50 did N#Cc1ccc(CCCC(=O)O)c(NC(=O)[C@@H]2C[C@]23CCOc2ccc(C(=O)NC4CCC4)cc23)c1 [Example 2-38] show?
Reply text: 4.7

Inquiry: Reported IC50 for CC(C)NC(=O)c1ccc2c(c1)[C@]1(CCO2)C[C@H]1C(=O)Nc1cc(C#N)ccc1CCCC(=O)O [Example 2-13] : what is it?
Reply text: 7.8

Inquiry: Request the reported IC50 associated with Cc1noc(-c2ccc3c(c2)[C@]2(CCO3)C[C@H]2C(=O)Nc2cc(C#N)ccc2CCCC(=O)O)n1 [Example 5]
Reply text: 2.8

Inquiry: # query: IC50 of entry COCCNC(=O)c1cc2c(cc1F)OCC[C@]21C[C@H]1C(=O)Nc1cc(C#N)ccc1CCCC(=O)O [Example 20-2]
Reply text: 1.6

Inquiry: Please give the measured IC50 for this compound: CN1CC[C@H](NC(=O)c2ccc3c(c2)[C@]2(CCO3)C[C@H]2C(=O)Nc2cc(C#N)ccc2CCCC(=O)O)C1 [Example 2-33]
Reply text: 9.7

Continue with the next compound.
Inquiry: // returns reported IC50 for input Cn1cc(NC(=O)c2ccc3c(c2)[C@]2(CCO3)C[C@H]2C(=O)Nc2cc(C#N)ccc2CCCC(=O)O)cn1 [Example 2-5]
Reply text: 1.3
